# Target desc: rat VR1 (Rattus norvegicus, UniProt O35433)
# Construct: expressed in transfected cells
# Sequence (O35433 whole entry): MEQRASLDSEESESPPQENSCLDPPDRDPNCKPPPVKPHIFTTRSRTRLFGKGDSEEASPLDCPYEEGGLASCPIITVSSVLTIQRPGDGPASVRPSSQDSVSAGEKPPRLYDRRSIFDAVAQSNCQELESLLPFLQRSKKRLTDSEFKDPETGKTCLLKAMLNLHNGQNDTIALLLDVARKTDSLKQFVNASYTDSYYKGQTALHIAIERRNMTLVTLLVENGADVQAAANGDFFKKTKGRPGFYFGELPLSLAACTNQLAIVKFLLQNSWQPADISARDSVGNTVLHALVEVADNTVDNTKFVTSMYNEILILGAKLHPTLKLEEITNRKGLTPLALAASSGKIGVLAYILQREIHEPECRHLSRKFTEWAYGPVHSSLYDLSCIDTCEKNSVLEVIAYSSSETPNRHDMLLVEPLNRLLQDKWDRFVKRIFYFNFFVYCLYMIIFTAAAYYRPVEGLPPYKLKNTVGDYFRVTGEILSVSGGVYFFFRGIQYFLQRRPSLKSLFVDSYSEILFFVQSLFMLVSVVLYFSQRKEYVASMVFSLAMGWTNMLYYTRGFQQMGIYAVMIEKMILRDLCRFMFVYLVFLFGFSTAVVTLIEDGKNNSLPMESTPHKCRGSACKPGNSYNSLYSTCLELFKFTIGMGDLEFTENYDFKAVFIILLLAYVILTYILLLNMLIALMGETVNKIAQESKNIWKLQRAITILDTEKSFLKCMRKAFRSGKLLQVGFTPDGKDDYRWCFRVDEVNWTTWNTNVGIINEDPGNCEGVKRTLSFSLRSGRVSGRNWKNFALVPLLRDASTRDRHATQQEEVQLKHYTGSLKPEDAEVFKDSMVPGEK
# Measurement protocol: 45Ca2+-uptake assay in CHO/VR1 cells, antagonism of capsaicin-stimulated uptake
# Assay type: cell-based
# Assay context: 45Ca2+ uptake stimulated by 50 nM capsaicin
Recorded log10 Ki for the following molecules
Response schema: value (number) is log10 of Ki in units of nM.

Below: 3 molecules and their reported log10 Ki.
Molecule: CC(NC(=S)NCc1ccc(C(C)(C)C)cc1)c1ccc(NS(C)(=O)=O)c(F)c1 (centres unmarked)
log10 Ki: 0.96
--
Molecule: COc1cc(C(C)C(=O)NCC(COC(=O)C(C)(C)C)Cc2ccc(C)c(C)c2)ccc1NS(C)(=O)=O (centres unmarked)
log10 Ki: 1.13
--
Molecule: CC(NC(=O)NCc1ccc(C(C)(C)C)cc1)c1ccc(NS(C)(=O)=O)cc1 (centres unmarked)
log10 Ki: 2.74

Request the reported log10 Ki associated with COC(=O)c1cc(C(C)NC(=S)NCc2ccc(C(C)(C)C)cc2)ccc1NS(C)(=O)=O (centres unmarked)
1.82

Now consider Cc1ccc(CC(CNC(=O)C(C)(C)c2ccc(NS(C)(=O)=O)c(F)c2)COC(=O)C(C)(C)C)cc1C (centres unmarked) and answer again.
1.82

For "C[C@H](NC(=S)NCc1ccc(C(C)(C)C)cc1)c1ccc(NS(C)(=O)=O)c(F)c1" then?
3.63

What would you report for "C[C@@H](NC(=S)NC[C@H](COC(=O)C(C)(C)C)Cc1ccccc1)c1ccc(NS(C)(=O)=O)cc1" ?
1.65

Moving on to "CC(C)(C)c1ccc(CNC(=O)C(C)(C)c2ccc(NS(C)(=O)=O)cc2)cc1"
3.41

Now the same for COc1cc(C(C)(C)C(=O)NCC(COC(=O)C(C)(C)C)Cc2ccc(C)c(C)c2)ccc1NS(C)(=O)=O (centres unmarked)
2.12

Same question, "C[C@@H](NC(=S)N[C@@H](COC(=O)C(C)(C)C)Cc1ccccc1)c1ccc(NS(C)(=O)=O)cc1" this time
2.29

Can you check C[C@@H](NC(=S)NCC(COC(=O)C(C)(C)C)Cc1ccc(C(C)(C)C)cc1)c1ccc(NS(C)(=O)=O)cc1 (some centres unmarked) next?
1.38

Another molecule to check: "C[C@H](C(=O)NC[C@H](COC(=O)C(C)(C)C)Cc1ccccc1)c1ccc(NS(C)(=O)=O)c(F)c1"
0.93

Would you mind doing "COc1cc(C(C)(C)NC(=S)NCc2ccc(C(C)(C)C)cc2)ccc1NS(C)(=O)=O" as well?
2.82
